ASSAY READOUT: melting point

Consider NC(=O)c1nnn(Cc2cccc(Cl)c2Cl)c1N . Its measured melting point is 224 to 226 °C

Data point: CC(C)N1CCOC(CN2C(=O)C3(COc4cc5c(cc43)OCCO5)c3ccccc32)C1 (stereo not given) ; melting point = 102 to 125 °C

melting point reported for this compound NC(=O)c1cn(Cc2ccccc2)c(CO)n1 : 204 to 207 °C

compound Nc1c(OCCCNCc2ccccc2)cccc1[N+](=O)[O-] , melting point observed: 66 to 67 °C

Sample CCOc1ccccc1OC(c1ccccc1)C(O)CO (stereo not given) ; melting point observed: 68 to 70 °C

Note to self: melting point recorded for CCCc1sc(-c2ccccc2)nc1OC(=O)Nc1ccccc1 was 104 to 105 °C

Sample COc1cc2[nH]c(=O)c(-c3csc(-c4ccncc4)n3)c(N)c2cc1OC ; melting point observed: > 250 °C

// recorded melting point for COC(=O)C1C(C(OC(=S)Oc2ccc(C)cc2)C(C)C)C1(C)C (stereo not given) : 92 to 93 °C

The compound listed as CC(=O)Nc1ccc(OCC2CCCC(OC(CCn3ccnc3)c3ccc(F)cc3)O2)cc1 (stereo not given) has a reported melting point of 133 to 135 °C

Reported melting point ( CN(C(=O)c1nsc2ccc(-n3c(=O)cc(C(F)(F)F)n(C)c3=O)cc12)S(C)(=O)=O ) = 120 to 122 °C

CC(C)(O)C#Cc1cccc(N)c1 has a reported melting point of 118 to 119 °C

Please fill in: melting point reported for CNc1cc(NS(=O)(=O)c2ccc(N)cc2)nc(NC)n1 = 303 to 305 °C

// sample COc1cc2ncc(C#N)c(Nc3ccc(F)c(Cl)c3)c2cc1NC(=O)CC(CN1CCC(O)C1)N1CCC(O)C1 (stereo not given) , its melting point was 139 to 143 °C

// COCn1ccc(C(=O)c2ccc(Cc3ccc(F)cc3)o2)c(O)c1=O : melting point value = 128 to 130 °C

// recorded melting point for CCCc1nc2ccccc2n1Cc1ccc(-c2ccccc2-c2nnn[nH]2)nc1 : 240 to 241 °C

Briefly, melting point measured for O=C(C=Cc1cccnc1)NC(Cc1c[nH]c2ccccc12)C(=O)CCc1cc(C(F)(F)F)cc(C(F)(F)F)c1 (stereo not given) : 138 to 139 °C

Per the records, this compound ( CCOC(=O)COc1ccc(C(=O)CN2CCN(c3ccncc3)CC2)cc1 ) has melting point equal to 41 to 42 °C

compound CCCCc1nc2c(N)nc3ccccc3c2n1CCOCc1ccccc1 , melting point observed: 133 to 135 °C

Kindly note the recorded melting point for CCN(CC)S(=O)(=O)c1ccc(Oc2ccc([N+](=O)[O-])cc2C#N)cc1 , which is 163 to 164 °C

// sample Cc1nc(-c2ccc(-c3cscn3)cc2)c(-c2ccc(S(C)(=O)=O)c(F)c2)o1 , its melting point was 196 to 197 °C

Source of measurements: a melting point compilation (Tetko et al.; mined from patent text by program, amines drawn as free bases though some values may be those of a salt)
